# System: OVCAR-4
# assay.details: NCI tumour cell line growth inhibition, 48 h
Active and inactive are the calls of the source. Rule as the data show it: active = GI50 up to about 1.1 µM and inactive = higher.
Task for the reader: assign each of the following compounds its reported GI50.

Q) # query: GI50 of entry CN(C)C1(N(C)C)Oc2c(c(=O)n(C)c(=O)n2C)C(c2ccc(F)cc2)C1(F)F (configuration not stated)
A) > 100 µM (inactive)

Q) # query: GI50 of entry CCCCCCCCCC[C@@H](O)[C@@H]1CC[C@@H]([C@@H]2CC[C@@H]([C@@H](O)CCCCCCCCCC[C@H](O)CC3=CC(C)OC3=O)O2)O1 (some centres not stated)
A) 6.28 µM (inactive)

Q) # query: GI50 of entry NC1CC(=O)c2cc(Cl)sc21 (configuration not stated)
A) > 100 µM (inactive)

Q) # query: GI50 of entry c1ccc2c(c1)nc1n2C2CCC(C2)N1 (configuration not stated)
A) > 10 µM (inactive)

Q) # query: GI50 of entry NC(CCSCCF)C(=O)O (configuration not stated)
A) > 100 µM (inactive)

Q) # query: GI50 of entry "O=C(c1ccccc1F)c1c(NCc2ccccc2)c(=O)c1=O"
A) > 100 µM (inactive)

Q) # query: GI50 of entry "O=[N+]([O-])C(C(Cl)=C(Cl)Cl)=C(N1CCCCC1)N1CCCCC1"
A) > 100 µM (inactive)

Q) # query: GI50 of entry "CC(C)C(=O)C(C)(C)CCc1ccccn1"
A) > 100 µM (inactive)

Q) # query: GI50 of entry "CCOC(=O)C(C)(C)Oc1ccc2c(-c3ccccc3)cc(=O)oc2c1"
A) 35.4 µM (inactive)

Q) # query: GI50 of entry "O=C(N/C(=C/c1ccc(Cl)cc1Cl)c1nc2ccccc2s1)c1ccccc1"
A) 15.5 µM (inactive)

Q) # query: GI50 of entry "O=[N+]([O-])c1ccc2c(c1)Nc1c3ccccc3nc3cccc-2c13"
A) 1.43 µM (inactive)

Q) # query: GI50 of entry CCOC(=O)C(C(=O)OCC)C1C=CCC2c3ccccc3COCC21 (configuration not stated)
A) 28.6 µM (inactive)

Q) # query: GI50 of entry "N#Cc1cc(Sc2ccc(N)c(C#N)c2)ccc1N"
A) 20.4 µM (inactive)

Q) # query: GI50 of entry "Nc1nc(N)c(C2=CCN(Cc3ccccc3)CC2)c(=O)[nH]1"
A) > 100 µM (inactive)

Q) # query: GI50 of entry "Cc1cc(C)c2c(O)cc(-c3ccc4ccccc4c3)nc2n1"
A) 14.6 µM (inactive)

Q) # query: GI50 of entry "O=CCC1CCCCC1"
A) > 100 µM (inactive)

Q) # query: GI50 of entry "CC(=O)c1ccc(Nc2nc3ccccc3c3occc23)cc1"
A) 1.79 µM (inactive)

Q) # query: GI50 of entry "C=CCn1c(-c2ccc(-c3cs/c(=N\N=O)n3CC=C)cc2)cs/c1=N\N=O"
A) 22.2 µM (inactive)

Q) # query: GI50 of entry COc1ccc(-c2nc(-c3cnccn3)n(C3OC(CO)C(O)C(O)C3O)n2)cc1 (configuration not stated)
A) > 100 µM (inactive)

Q) # query: GI50 of entry COc1cc2c(cc1Oc1ccc(OC)c3c1CC1c4c(cc(OC)c(OC)c4-3)CCN1C)CC1c3c(cc(OC)c(OC)c3-2)CCN1C (configuration not stated)
A) 2.74 µM (inactive)

Q) # query: GI50 of entry COc1cc2c3c4[n+](cc2c(OC)c1OC)CCC4CCC3 (configuration not stated)
A) > 100 µM (inactive)

Q) # query: GI50 of entry O=C(Nc1ccn(C2CCC(COC(c3ccccc3)(c3ccccc3)c3ccccc3)O2)c(=O)n1)c1ccccc1 (configuration not stated)
A) 2.82 µM (inactive)

###

# Tested on: SNB-75
# assay.details: NCI tumour cell line growth inhibition, 48 h
Activity calls are given as the source filed them. Cut-off read from the data, not from the text of the source: active = GI50 up to about 1.1 µM and inactive = higher.
Task for the reader: assign each of the following compounds its reported GI50.

Q) # query: GI50 of entry "O=C(O)c1cc2ccccc2c(/N=N/c2ccc(S(=O)(=O)Nc3ccccn3)cc2)c1O"
A) > 100 µM (inactive)

Q) # query: GI50 of entry "CC1=C(C(=O)Nc2ccccc2)C(c2ccc(N(C)C)cc2)C(C(=O)Nc2ccccc2)=C(C)N1"
A) 35.6 µM (inactive)

Q) # query: GI50 of entry "CCN(CC)CCNc1ccc2ncn3c4c(OC)cccc4c(=O)c1c23"
A) 11.3 µM (inactive)

Q) # query: GI50 of entry "COc1cc(-c2nn3c(=O)n(-c4ccc(Cl)cc4)c(=O)nc3s2)cc(OC)c1OC"
A) 8.24 µM (inactive)

Q) # query: GI50 of entry C=C1CC2(CC(c3ccccc3Cl)OC(c3ccccc3Cl)C2)OC1=O (centres undefined)
A) 3.17 µM (inactive)

Q) # query: GI50 of entry Cc1ccc(S(=O)(=O)OC(C=O)C(O)C(O)COC(c2ccccc2)(c2ccccc2)c2ccccc2)cc1 (centres undefined)
A) 14.9 µM (inactive)

Q) # query: GI50 of entry "COc1cc([N+](=O)[O-])ccc1NC(=O)c1cccc([N+](=O)[O-])c1O"
A) 21.1 µM (inactive)

Q) # query: GI50 of entry COc1c(OC2OC(CO)C(O)C(O)C2O)cc2c(c1OC)-c1ccc(OC)c(=O)cc1C(NC(C)=O)CC2 (centres undefined)
A) 25.3 µM (inactive)

Q) # query: GI50 of entry CCN(/N=C1\CC2C=CCN(C2)C(=O)Cc2c1[nH]c1ccccc21)S(=O)(=O)c1ccc(C)cc1 (centres undefined)
A) 35.6 µM (inactive)

Q) # query: GI50 of entry "CC1=C(C)C(=O)C(C2=C(C3=CC(=O)C(C)=C(C)C3=O)C(=O)C(C)=C(C)C2=O)=CC1=O"
A) 16.6 µM (inactive)

Q) # query: GI50 of entry "Cc1cc(C)c2c(O)cc(-c3ccc4ccccc4c3)nc2n1"
A) 15.8 µM (inactive)

Q) # query: GI50 of entry "CN(C)c1nc(N(C)C)nc(N(C)CN(C)c2ccccc2)n1"
A) > 100 µM (inactive)

Q) # query: GI50 of entry "O=C(Nc1cccc(Cl)c1)c1cc2cc(/N=N/c3ccc(Br)cc3)ccc2oc1=O"
A) 37 µM (inactive)

Q) # query: GI50 of entry "COc1ccc2[nH]c(Cl)c(/C=C3/C(=O)N(c4ccccc4)c4ccccc43)c2c1"
A) 12.3 µM (inactive)

Q) # query: GI50 of entry "CN(C)CCNC(=O)c1cccc2c1nc(-c1ccc(F)cc1)c1ccccc12"
A) 10.7 µM (inactive)

Q) # query: GI50 of entry "CN1CCN(CCn2c3c4ccccc4ccc3c3oc(=O)c4ccccc4c32)CC1"
A) 4.37 µM (inactive)

Q) # query: GI50 of entry O=S1(=O)NC2CCC3NS(=O)(=O)NC4CCC(N1)N4S(=O)(=O)N23 (centres undefined)
A) > 100 µM (inactive)

Q) # query: GI50 of entry "CCCCCCCCCCCCc1ccsc1-c1ccc(-c2ccc(-c3sc(-c4cc(CCCCCCCCCCCC)c(-c5ccc(-c6ccc(-c7sccc7CCCCCCCCCCCC)s6)s5)s4)cc3CCCCCCCCCCCC)s2)s1"
A) > 100 µM (inactive)

Q) # query: GI50 of entry COc1ccc(C2ON(c3ccccn3)CC=C2C)cc1 (centres undefined)
A) > 100 µM (inactive)

###

# Test system: CAKI-1
# assay.details: NCI tumour cell line growth inhibition, 48 h
Activity calls are given as the source filed them. No stated cut-off is given here; in the data, active = GI50 up to about 1.1 µM and inactive = higher.
observation.type: GI50

Q) # query: GI50 of entry CC(=O)O[C@@H]1CC[C@@]2(C)C(=O)C34C[C@@]5(C)C([C@@H](C)CCCC(C)C)CCC5(C)[C@](O)(O3)C(=O)[C@H]4C2C1(C)C (stereo partly drawn)
A) 14.7 µM (inactive)

Q) # query: GI50 of entry "CCN(C(=S)N[C@@H](Cc1ccccc1)C(=O)N[C@@H](CC(C)C)C(=O)OC)c1ccccc1"
A) > 100 µM (inactive)

Q) # query: GI50 of entry "C=C1CC[C@H]2C(C)=CC[C@H]3C(=C)C(=O)O[C@@H]3[C@@H]12"
A) > 100 µM (inactive)

Q) # query: GI50 of entry O=C(CN1CCN(c2ccccc2)CC1)N1CCc2c([nH]c3ccccc23)C1c1cccnc1 (stereo not drawn)
A) 25.3 µM (inactive)

Q) # query: GI50 of entry "CO[C@@H]1C[C@H]2N3CC[C@@]2(c2cc4c(cc2C3)OCO4)[C@H]2O[C@@H]12"
A) > 100 µM (inactive)

Q) # query: GI50 of entry CC(=O)Nc1ccc2c3c(cc(O)c2c1)N(C(=O)CCCCCCC(=O)N1CC(CCl)c2c1cc(O)c1cc(NC(C)=O)ccc21)CC3CCl (stereo not drawn)
A) < 0.0152 µM (active)

Q) # query: GI50 of entry "Cc1ccc(NC(=O)/C(Cl)=C(/Cl)C(=O)O)cc1"
A) 17.3 µM (inactive)

Q) # query: GI50 of entry "N#Cc1cc([N+](=O)[O-])ccc1NC(=O)C(=O)Nn1c(S)nc2ccccc2c1=O"
A) > 100 µM (inactive)
